Each recorded value in this set is attributed to PubChem BioAssay.

Target: Neurogenic locus notch homolog protein 2 (Homo sapiens) (UniProt Q04721)
Sequence (Q04721 whole entry, looked up): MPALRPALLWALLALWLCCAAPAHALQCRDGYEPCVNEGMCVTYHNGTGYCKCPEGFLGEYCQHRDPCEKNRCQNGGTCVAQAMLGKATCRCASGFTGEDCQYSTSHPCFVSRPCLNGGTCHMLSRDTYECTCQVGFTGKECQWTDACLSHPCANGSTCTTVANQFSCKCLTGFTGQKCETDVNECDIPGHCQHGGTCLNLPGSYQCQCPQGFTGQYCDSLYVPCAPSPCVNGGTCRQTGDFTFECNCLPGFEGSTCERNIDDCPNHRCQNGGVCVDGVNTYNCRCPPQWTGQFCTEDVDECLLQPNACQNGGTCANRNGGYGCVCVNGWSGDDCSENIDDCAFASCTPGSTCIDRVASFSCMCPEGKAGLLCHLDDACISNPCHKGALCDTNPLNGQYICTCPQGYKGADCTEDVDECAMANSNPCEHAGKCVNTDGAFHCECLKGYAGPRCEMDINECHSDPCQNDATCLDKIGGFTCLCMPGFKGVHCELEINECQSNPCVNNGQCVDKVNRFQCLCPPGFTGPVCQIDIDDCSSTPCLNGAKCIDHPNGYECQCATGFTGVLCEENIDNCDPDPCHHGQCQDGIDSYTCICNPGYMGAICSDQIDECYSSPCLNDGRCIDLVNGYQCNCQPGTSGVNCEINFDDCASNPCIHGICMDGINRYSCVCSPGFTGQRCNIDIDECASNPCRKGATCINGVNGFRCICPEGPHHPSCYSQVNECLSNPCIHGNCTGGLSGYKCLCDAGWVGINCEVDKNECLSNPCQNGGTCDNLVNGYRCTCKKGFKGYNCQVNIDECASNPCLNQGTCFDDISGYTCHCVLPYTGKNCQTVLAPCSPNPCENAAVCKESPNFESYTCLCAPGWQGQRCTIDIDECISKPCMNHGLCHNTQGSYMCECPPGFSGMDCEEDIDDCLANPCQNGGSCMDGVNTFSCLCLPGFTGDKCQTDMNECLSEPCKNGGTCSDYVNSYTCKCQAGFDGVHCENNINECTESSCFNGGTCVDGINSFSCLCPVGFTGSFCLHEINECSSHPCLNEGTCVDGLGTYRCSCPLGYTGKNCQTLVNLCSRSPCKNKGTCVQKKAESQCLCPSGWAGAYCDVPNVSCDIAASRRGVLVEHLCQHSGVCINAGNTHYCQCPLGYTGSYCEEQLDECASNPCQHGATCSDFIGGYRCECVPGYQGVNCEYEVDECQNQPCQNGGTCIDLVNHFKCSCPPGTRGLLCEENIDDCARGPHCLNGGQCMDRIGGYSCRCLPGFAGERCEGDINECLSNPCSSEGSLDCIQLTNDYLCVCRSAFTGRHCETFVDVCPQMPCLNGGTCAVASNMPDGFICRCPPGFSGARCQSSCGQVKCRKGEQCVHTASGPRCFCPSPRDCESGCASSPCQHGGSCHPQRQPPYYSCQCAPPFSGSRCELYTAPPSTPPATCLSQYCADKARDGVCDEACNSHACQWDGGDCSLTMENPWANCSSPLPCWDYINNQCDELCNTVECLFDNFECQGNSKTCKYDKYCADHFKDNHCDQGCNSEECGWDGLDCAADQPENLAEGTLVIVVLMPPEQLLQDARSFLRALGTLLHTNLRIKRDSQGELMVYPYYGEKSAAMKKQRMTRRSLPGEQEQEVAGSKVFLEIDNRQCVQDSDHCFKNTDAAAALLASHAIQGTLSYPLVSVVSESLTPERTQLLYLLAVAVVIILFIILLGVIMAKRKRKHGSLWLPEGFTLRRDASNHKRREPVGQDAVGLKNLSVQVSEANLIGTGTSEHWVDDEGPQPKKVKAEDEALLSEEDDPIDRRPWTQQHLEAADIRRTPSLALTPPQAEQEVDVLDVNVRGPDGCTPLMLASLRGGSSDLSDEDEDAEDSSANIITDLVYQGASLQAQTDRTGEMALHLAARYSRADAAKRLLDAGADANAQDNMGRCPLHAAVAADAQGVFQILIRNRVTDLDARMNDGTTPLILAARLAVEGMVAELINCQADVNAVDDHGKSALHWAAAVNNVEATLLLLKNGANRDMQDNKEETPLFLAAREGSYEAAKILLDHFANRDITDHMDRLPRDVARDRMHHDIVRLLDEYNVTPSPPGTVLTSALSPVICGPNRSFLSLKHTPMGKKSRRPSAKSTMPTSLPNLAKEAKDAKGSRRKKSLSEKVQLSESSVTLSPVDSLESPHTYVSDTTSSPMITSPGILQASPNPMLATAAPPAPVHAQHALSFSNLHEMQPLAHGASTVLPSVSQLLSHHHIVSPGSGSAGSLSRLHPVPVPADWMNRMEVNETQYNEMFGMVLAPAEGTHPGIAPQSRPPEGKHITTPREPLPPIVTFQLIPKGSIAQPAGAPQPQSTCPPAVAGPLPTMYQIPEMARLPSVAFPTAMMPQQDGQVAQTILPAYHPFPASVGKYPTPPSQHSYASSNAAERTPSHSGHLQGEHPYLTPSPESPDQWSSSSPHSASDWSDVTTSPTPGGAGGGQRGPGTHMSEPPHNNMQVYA
Assay: Notch2 binders on small-molecule microarrays, primary screen, biochemical, small-molecule microarray, 635 nm fluorescence, stem cell growth factors (AID 1073)
Conditions: Notch2 binding, higher = more signal
Class Condition met: composite z-score at least 0.4. Class Condition not met: composite z-score below 0.4.

| molecule | targetDesc | qualitativeLabel |
| --- | --- | --- |
| CCCC[C@H]1CN2[C@@H](CC[C@@H](C)[C@@H]2c2ccc(Br)cc2)C(=O)O1 | Neurogenic locus notch homolog protein 2 (Homo sapiens) (UniProt Q04721) | Condition met |
| C=CC[C@@H]1C=C[C@H](ON=C2C[C@@H](O)[C@@H](O)[C@@H]3[C@@H]4C(=O)N(CC)C(=O)[C@@H]4CC[C@@H]23)[C@@H](CO)O1 | Neurogenic locus notch homolog protein 2 (Homo sapiens) (UniProt Q04721) | Condition not met |
| COc1ccc(COC(=O)NN=C2C[C@@H](O)[C@@H](O)[C@@H]3[C@@H]4C(=O)N([C@@H](C)c5ccccc5)C(=O)[C@@H]4CC[C@H]23)cc1 | Neurogenic locus notch homolog protein 2 (Homo sapiens) (UniProt Q04721) | Condition not met |

Please turn your attention to the following entry.
Data request: Is the recorded value of composite z-score equal to or greater than 0.4 for this molecule? `COc1ccc(COC(=O)NN=C2C[C@@H](O)[C@@H](O)[C@@H]3[C@@H]4C(=O)N([C@@H](C)c5ccccc5)C(=O)[C@@H]4CC[C@@H]23)cc1`
Data returned: Condition not met

====

Test system: Chordin-like protein 2 (CHRDL2)
Test: CHRDL2 small-molecule binders, primary screen, biochemical, small-molecule microarray, 635 nm fluorescence (AID 1126);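 further: printed compound slides probed with Chrdl2 protein at 4 µg/mL for 1 h at 4 C; score merges 667 nm emission intensity with signal to noise over three replicate slides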
Conditions: small-molecule microarray binding, fluorescence 635 nm; higher = more signal
# key: entry, value: composite z-score
Just the number, please, no unit after it.

| compound | targetDesc | composite z-score |
| --- | --- | --- |
| CC(CCN1CCCc2nc(C)c(C)cc21)=NO[C@H](C)c1cn([C@H](CO)Cc2ccccc2)nn1 | Chordin-like protein 2 (CHRDL2) | 0.618 |
| CO[C@@H]1[C@H](O)CO[C@H]1C=Cc1ccccc1 | Chordin-like protein 2 (CHRDL2) | 0.144 |
| CC(C)CON=C1C[C@@H](O)[C@@H](O)[C@@H]2[C@@H]3C(=O)N(C(C)(C)C)C(=O)[C@@H]3CC[C@@H]12 | Chordin-like protein 2 (CHRDL2) | 1.5 |
| CC(CCN1CCCCc2nc(C)c(C)cc21)=NO[C@@H](C)c1cc(-c2c(C)cc(C)cc2C)no1 | Chordin-like protein 2 (CHRDL2) | -0.734 |
| CCOC(=O)[C@H](Cc1ccccc1)NC(=O)CCC1CC(OC(=O)NCc2cccc3ccccc23)CC2(CCCC(COC(=O)NCCc3ccccc3OC)O2)O1 (stereo partly specified) | Chordin-like protein 2 (CHRDL2) | 0.241 |

Here's the next entry for you.
Data request: // lookup composite z-score for `COC(=O)[C@@H]1CC[C@H](C)[C@@H](c2ccc(Br)cc2)N1C[C@@H](O)CN=[N+]=[N-]`
Data returned: 0.401

====

System: Chordin-like protein 2 (CHRDL2)
Experiment: CHRDL2 small-molecule binders, primary screen, biochemical, small-molecule microarray, 635 nm fluorescence (AID 1126);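 further: printed compound slides probed with Chrdl2 protein at 4 µg/mL for 1 h at 4 C; score merges 667 nm emission intensity with signal to noise over three replicate slides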
Details: small-molecule microarray binding, fluorescence 635 nm; higher = more signal
# key: entry, value: composite z-score

Solved entries (count: 2):
| molecule | composite z-score |
| --- | --- |
| CC(C)=CCCC(C)=CCON=C1C[C@@H](O)[C@@H](O)[C@@H]2[C@@H]3C(=O)N(C4CCCCC4)C(=O)[C@@H]3CC[C@H]12 | 1.07 |
| CCOC(=O)[C@H](Cc1ccccc1)NC(=O)CCC1CC(OC(=O)NCc2ccc3c(c2)OCO3)CC2(CCCC(COC(=O)NCCCN3CCCC3=O)O2)O1 (stereo partly drawn) | 0.329 |

Data request: // lookup composite z-score for CCOC(=O)[C@H](CC(C)C)NC(=O)CCC1CC(OC(=O)NCc2ccc3c(c2)OCO3)CC2(CCCC(COC(=O)NCc3ccccc3)O2)O1 (stereo partly drawn)
Data returned: 0.161
